Values were extracted from the Immune Epitope Database (IEDB).

- experimental.system: HLA-B*27:05
- test.details: IEDB peptide-MHC binding, purified MHC/direct/fluorescence; filed as Kd, often an IC50 or EC50 that approximates it; bounds were set here for any values at or beyond the usual limits of such assays
- measurement.parameters: source organism: SARS-CoV1
parameter: Kd

Value sought: Kd, system HLA-B*27:05, item KQYNVTQAF . Result: 538 nM

###

- experimental.system: HLA-A*24:02
- test.details: IEDB peptide-MHC binding, purified MHC/direct/fluorescence; filed as Kd, often an IC50 or EC50 that approximates it; bounds were set here for any values at or beyond the usual limits of such assays
- measurement.parameters: source organism: Vibrio vulnificus
parameter: pKd
Schema: pKd number; meaning minus log10 of the concentration expressed in molar units.

Reported pKd ( PHPVVVRTL ) = 4.74

###

- experimental.system: HLA-A*02:02
- test.details: IEDB peptide-MHC binding, purified MHC/competitive/radioactivity; filed as Kd, often an IC50 or EC50 that approximates it; bounds were set here for any values at or beyond the usual limits of such assays
- measurement.parameters: source organism: Vaccinia virus Copenhagen
parameter: Kd (pM)
State the answer as a number, implicitly in pM.

Reported Kd ( NLFDIPLLTV ) = 99.7

###

- experimental.system: HLA-A*02:01
- test.details: IEDB peptide-MHC binding, purified MHC/direct/fluorescence; filed as Kd, often an IC50 or EC50 that approximates it; bounds were set here for any values at or beyond the usual limits of such assays
- measurement.parameters: source organism: Entamoeba histolytica HM-1:IMSS
parameter: Kd

Reported Kd ( IESNPLFPV ) = ≥ 20 µM

###

- experimental.system: HLA-B*40:01
- test.details: IEDB peptide-MHC binding, purified MHC/direct/fluorescence; filed as Kd, often an IC50 or EC50 that approximates it; bounds were set here for any values at or beyond the usual limits of such assays
- measurement.parameters: source organism: Yersinia pestis
parameter: Kd (nM)
State the answer as a number, implicitly in nM.

Reported Kd ( ETIFTVLAL ) = 2410

###

- experimental.system: HLA-A*02:01
- test.details: IEDB peptide-MHC binding, purified MHC/competitive/radioactivity; filed as Kd, often an IC50 or EC50 that approximates it; bounds were set here for any values at or beyond the usual limits of such assays
- measurement.parameters: source organism: Lassa virus Josiah
parameter: Kd (µM)
State the answer as a number, implicitly in µM.

Value sought: Kd, system HLA-A*02:01, item VLKGLYNFA . Result: 6.25

###

- experimental.system: HLA-A*02:01
- test.details: IEDB peptide-MHC binding, purified MHC/competitive/fluorescence; bounds were set here for any values at or beyond the usual limits of such assays
- measurement.parameters: source organism: Mycobacterium tuberculosis
parameter: pIC50
Schema: pIC50 number; meaning minus log10 of the concentration expressed in molar units.

Value sought: pIC50, system HLA-A*02:01, item ALVREGLRNV . Result: 6.89

###

- experimental.system: HLA-A*68:02
- test.details: IEDB peptide-MHC binding, purified MHC/competitive/radioactivity; filed as Kd, often an IC50 or EC50 that approximates it; bounds were set here for any values at or beyond the usual limits of such assays
- measurement.parameters: source organism: Vaccinia virus WR
parameter: Kd (nM)
State the answer as a number, implicitly in nM.

chain.sequence | Kd, nM
YIYGIPLSL | 1870

Please look at the following sequence next.
Value sought: Kd, system HLA-A*68:02, item STCYVFGLY . Result: 1380
